# Assay name: Antioxidant activity assessed as DPPH radical scavenging activity incubated for 30 mins under dark condition
# Type: functional

Molecule: COc1ccc(-c2nc3c(n2Cc2cn(-c4ccccc4)nn2)C(=O)c2ccccc2C3=O)cc1
IC50: 10.15 µg/mL

Molecule: O=C1c2ccccc2C(=O)c2c1nc(-c1ccc(F)cc1)n2Cc1cn(-c2ccc([N+](=O)[O-])cc2)nn1
IC50: 9.69 µg/mL

Molecule: COc1ccc(-n2cc(Cn3c(-c4cccc(OC)c4)nc4c3C(=O)c3ccccc3C4=O)nn2)cc1
IC50: 9.8 µg/mL

Molecule: COc1ccc(-c2nc3c(n2Cc2cn(-c4ccccc4)nn2)C(=O)c2ccccc2C3=O)c(OC)c1
IC50: 11.09 µg/mL

Molecule: CCCCn1cc(Cn2c(-c3cccc(OC)c3)nc3c2C(=O)c2ccccc2C3=O)nn1
IC50: 9.82 µg/mL

Molecule: COc1cccc(-c2nc3c(n2Cc2cn(-c4ccc([N+](=O)[O-])cc4)nn2)C(=O)c2ccccc2C3=O)c1
IC50: 9.2 µg/mL

Molecule: O=C1c2ccccc2C(=O)c2c1nc(-c1ccc(F)cc1)n2Cc1cn(-c2ccc(F)cc2)nn1
IC50: 9.57 µg/mL

Molecule: CCCCn1cc(Cn2c(-c3ccc(OC)cc3OC)nc3c2C(=O)c2ccccc2C3=O)nn1
IC50: 10.26 µg/mL

Molecule: O=C1c2ccccc2C(=O)c2c1nc(-c1ccc(F)cc1)n2Cc1cn(-c2ccccc2)nn1
IC50: 10.32 µg/mL

Molecule: COc1ccc(-c2nc3c(n2Cc2cn(-c4ccc(F)cc4)nn2)C(=O)c2ccccc2C3=O)c(OC)c1OC
IC50: 10.41 µg/mL

Molecule: Cc1cc(C(C)(C)C)c(O)c(C(C)(C)C)c1 [BUTYLATED HYDROXYTOLUENE]
IC50: 9.41 µg/mL

Molecule: COc1ccc(-n2cc(Cn3c(-c4ccc(OC)cc4OC)nc4c3C(=O)c3ccccc3C4=O)nn2)cc1
IC50: 10.65 µg/mL

Molecule: COc1ccc(-n2cc(Cn3c(-c4ccc(F)cc4)nc4c3C(=O)c3ccccc3C4=O)nn2)cc1
IC50: 10.84 µg/mL

Molecule: COc1ccc(-c2nc3c(n2Cc2cn(-c4ccc(F)cc4)nn2)C(=O)c2ccccc2C3=O)c(OC)c1
IC50: 9.92 µg/mL

Molecule: COc1cccc(-c2nc3c(n2Cc2cn(-c4ccc(F)cc4)nn2)C(=O)c2ccccc2C3=O)c1
IC50: 9.3 µg/mL

Molecule: Cc1ccc(-n2cc(Cn3c(-c4ccc(F)cc4)nc4c3C(=O)c3ccccc3C4=O)nn2)cc1
IC50: 9.61 µg/mL

Molecule: COc1ccc(-c2nc3c(n2Cc2cn(-c4ccc(C)cc4)nn2)C(=O)c2ccccc2C3=O)cc1
IC50: 10.14 µg/mL

Molecule: COc1ccc(-c2nc3c(n2Cc2cn(-c4ccc(F)cc4)nn2)C(=O)c2ccccc2C3=O)cc1
IC50: 10.58 µg/mL
